PROTOCOL SUMMARY: Compound was tested in vitro for antiviral activity against sandfly fever-Sicilian (SF) virus (Concentration which was cytotoxic to 50% of uninfected cells)
CONDITION DETAILS: read-out: TC50 (the source's name)
ENDPOINT LABEL: CC50

For orientation, consider the following solved cases.
Record request: CC50 value, item NC(=O)CCC(/N=C(/N)c1ncn(C2O[C@H](CO)[C@@H](O)[C@H]2O)n1)C(=O)O (stereo partly drawn)
> 3200 µg/mL

Record request: CC50 value, item CCCC/N=C(/N)c1ncn(C2O[C@H](CO)[C@@H](O)[C@H]2O)n1 (stereo partly drawn)
> 1000 µg/mL

Record request: CC50 value, item Cl.N=C(N)c1ncn([C@@H]2O[C@H](CO)[C@@H](O)[C@H]2O)n1 [TARIBAVIRIN HYDROCHLORIDE]
800 µg/mL

New cases:
Record request: CC50 value, item N#C/N=C(/N)c1ncn(C2O[C@H](CO)[C@@H](O)[C@H]2O)n1 (stereo partly drawn)
> 1000 µg/mL

Record request: CC50 value, item Cl.OC[C@H]1O[C@@H](n2cnc(C3=NCC(O)CN3)n2)[C@H](O)[C@@H]1O (stereo partly drawn)
> 320 µg/mL

Record request: CC50 value, item CCCCCCCC/N=C(/N)c1ncn(C2O[C@H](CO)[C@@H](O)[C@H]2O)n1 (stereo partly drawn)
> 1000 µg/mL

Record request: CC50 value, item C/N=C(\NC)c1ncn([C@@H]2O[C@H](CO)[C@@H](O)[C@H]2O)n1.Cl
> 1000 µg/mL

Record request: CC50 value, item Cl.OC[C@H]1O[C@@H](n2cnc(C3=NCCCN3)n2)[C@H](O)[C@@H]1O
> 3200 µg/mL

====

PROTOCOL SUMMARY: Compound was tested in vitro for antiviral activity against Punta Toro (PT) virus (Concentration required for the 50%inhibition of virus-induced cell death)
Format: functional
ENDPOINT LABEL: IC50 (µg/mL)
Give the number; µg/mL is assumed, so skip it.

Record request: IC50 value, item NC(=O)CC(/N=C(/N)c1ncn(C2O[C@H](CO)[C@@H](O)[C@H]2O)n1)C(=O)O (some centres not stated)
1600

Record request: IC50 value, item COC(=N)c1ncn([C@@H]2O[C@H](CO)[C@@H](O)[C@H]2O)n1
201

Record request: IC50 value, item NC(=O)CCC(/N=C(/N)c1ncn(C2O[C@H](CO)[C@@H](O)[C@H]2O)n1)C(=O)O (some centres not stated)
2690

New cases:
Record request: IC50 value, item Cl.N=C(N)c1ncn([C@@H]2O[C@H](CO)[C@@H](O)[C@H]2O)n1 [TARIBAVIRIN HYDROCHLORIDE]
83

Record request: IC50 value, item C/N=C(\NC)c1ncn([C@@H]2O[C@H](CO)[C@@H](O)[C@H]2O)n1.Cl
181

Record request: IC50 value, item C/N=C(/N)c1ncn([C@@H]2O[C@H](CO)[C@@H](O)[C@H]2O)n1.Cl
250

Record request: IC50 value, item CCCC/N=C(/N)c1ncn(C2O[C@H](CO)[C@@H](O)[C@H]2O)n1 (some centres not stated)
41

====

PROTOCOL SUMMARY: Compound was tested in vitro for antiviral activity against dengue-4-virus (Concentration which was cytotoxic to 50% of uninfected cells)
CONDITION DETAILS: dengue virus type 4, uninfected cells; read-out: TC50 (the source's name)
ENDPOINT LABEL: CC50

Record request: CC50 value, item Cl.N=C(N)c1ncn([C@@H]2O[C@H](CO)[C@@H](O)[C@H]2O)n1 [TARIBAVIRIN HYDROCHLORIDE]
250 µg/mL

Record request: CC50 value, item C/N=C(\NC)c1ncn([C@@H]2O[C@H](CO)[C@@H](O)[C@H]2O)n1.Cl
> 250 µg/mL

# evaluate next
Record request: CC50 value, item COC(=N)c1ncn([C@@H]2O[C@H](CO)[C@@H](O)[C@H]2O)n1
> 250 µg/mL
